System: K-562
Assay remarks: antiproliferative activity on K-562 cells
Format: cell-based
Condition description: Homo sapiens, K562, 72 h
For each record, write down the corresponding GI50.
Answers are plain numbers, in nM.

Molecule	Uom	GI50
COc1ccc2c(c1)CCC1C2CC[C@]2(C)C[C@H](NCc3ccccc3O)CC12 (stereo partly drawn)	nM	3800

Need GI50 for each of these molecules.
1. COc1ccc2c(c1)CCC1C2CC[C@@]2(C)C1C[C@@H](NCc1ccccc1O)[C@@H]2O (stereo partly drawn)
2. COc1ccc2c(c1)CCC1C2CC[C@]2(C)C1CC(NCc1ccccc1O)[C@@H]2O (stereo partly drawn)

1. 2000
2. 8400
